# self-cleavage per record follows
B1: HDV Ribozyme (parent)
chain: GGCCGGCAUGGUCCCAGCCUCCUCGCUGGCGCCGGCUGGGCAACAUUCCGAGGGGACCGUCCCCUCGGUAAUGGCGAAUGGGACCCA

Variants of: B1
Assay notes: self-cleavage, relative activity (ratio to wild type); higher = more cleavage; co-transcriptional
Measured endpoint: self-cleavage

Sequence | Quantitative readout
GGCCGGCAUGGUCCCAGCCUCCUCGAUGGCGCCGGCUGCGCAACAUUCCGAGGGGACCGUCCCCUCGGUAAUGGCGAAUGGGACCCA | 0
GGCCGGCAUGGUCCCAGCCUCCUCGCUGGCGCCGGCUGGUCAACAUUCCGAGGGGACCCUCCCCUCGGUAAUGGCGAAUGGGACCCA | 0.76
GGCCGGCAUGGUCCCAUCCUCCUCGCUGGCGCCGGCUAGGCAACAUUCCGAGGGGACCGUCCCCUCGGUAAUGGCGAAUGGGACCCA | 0.0755
GGCCGGCGUGGUCCCAGCCUCCUCGCUGGCGCCGGCUGGGCAACAUUCCGAGGGGACCGUCCGCUCGGUAAUGGCGAAUGGGACCCA | 1.11
GGCCGGCAUGGUCCCAGCCUCCUCGAUGGCGCCGGCUGGGCAACAGUCCGAGGGGACCGUCCCCUCGGUAAUGGCGAAUGGGACCCA | 0.86
GGCCGGCAUGGCCCCAGCCUCCUCGCUGGCGCCGGCUGGGCAACAUUCCGAGGGGACCGUCCCCUUGGUAAUGGCGAAUGGGACCCA | 0.655
UGCCGGCAUGGUCCCAGCCUCCUCGCUGGCGCCGGCUGGGCACCAUUCCGAGGGGACCGUCCCCUCGGUAAUGGCGAAUGGGACCCA | 0.425
UGCCGGCAUGGUCCCAGCCUCCUCGCUGGCGCCGGCUGGGCAACAUUCCGAGGGGACCGUCCCCUCGGUAAUGUCGAAUGGGACCCA | 0.358
GGCCGACAUGGUCCCAGACUCCUCGCUGGCGCCGGCUGGGCAACAUUCCGAGGGGACCGUCCCCUCGGUAAUGGCGAAUGGGACCCA | 0
GGCCGGCAUGGUCCCAGCCUCCUCGCUGUCGCCGGCUGGGCCACAUUCCGAGGGGACCGUCCCCUCGGUAAUGGCGAAUGGGACCCA | 0.125
GGCCGGCAUGGUCCCAGCCUCCUCGCUGUCGCCGGCUGGGCAACAUUCCGAGGGGACCGUCCGCUCGGUAAUGGCGAAUGGGACCCA | 0.0386
GGCCGGCAUGGUCCCAGCCUCCUCGCGGGCGCCGGCUGGGCAACAUUCCGAGGGGACCGUCCCCUCGGUAAUAGCGAAUGGGACCCA | 0.396
GGCCGGCAUGGUCCCAGCCUCCUCGCUGGCGCCGGCUGGGCAACAUUCCGAGGGGACCCUCCCCUCGGUAAUGACGAAUGGGACCCA | 0.635
GGCCGGCAUGGUCCCAGCCUCCUCGCUGUCGCGGGCUGGGCAACAUUCCGAGGGGACCGUCCCCUCGGUAAUGGCGAAUGGGACCCA | 0.0369
GGCCGGCAUGGUCCCAGCCUCCUCGCUGGCGUCGGCUGGGCAACAUUCCGAGGGGACCGUCCCCUCGGUAAUGGCGAAUGGGACCUA | 0.686
GGCCGGCAUGGUGCCAGCCUCCUCGCUGGCGCCGGCUGGGCAACAUUCCGAGGGGACCGUCCCCUCGGUAAUGGCGAAUGGGGCCCA | 0.0361
GGCCGGCAUGGUCCCAGCCUCCUCGCUGGCGCCGGCUGGGCAACAUUCGGAGGGGACCGUCCCCUCGGUAAUGGCCAAUGGGACCCA | 0.982
GGCCGGCAUGGUCCCAGCCUCCUCGCUCGCGCCGGCUGGGCAACAUCCCGAGGGGACCGUCCCCUCGGUAAUGGCGAAUGGGACCCA | 0.0665
GGCCGGCAUGGUCCCAGCCUCCUCGCUGGCGCCGGCUUGGCAACAUUCCGAGGGGACCGUCCCCUCGGUAAUGGCGAAUGGGAUCCA | 0.0821
GGCCGGCAUGGUCCCAGCCUCCUCGCUGGCGCCGGCUGGGCAACAUUCCGAGGGGACCGUCCCCUCGCUGAUGGCGAAUGGGACCCA | 0.639
GGCCGGCAUGGUCCCAGCCUCCUCGCUGGCGCCGGCUGGGCAACAUUCCGAGGGGCCCGUCCCCCCGGUAAUGGCGAAUGGGACCCA | 1.33
GGCCGGCAUGGUCCCAGCCUCCUCGCUGGCGCCGGCUGGGCAAUAUUCCGAGGGGACCGUCCCCUCGGUAAUGGCGAAUGGGUCCCA | 0.208
GGCCGGCAUGGUCCCAGCCUCCUCGCUGGCGCCGGCUGGGCAACAUUCCGAGGGGACCGUCCCCUCCGUAAUGGCGAAUGGGACGCA | 0.96
GGCCGGCAUGUUCCCAGCCUCCUCGCUGGCGCCGGCUGGGCAACAUUCCGAGGGGACCGUCCCCUCGGUAAUGGCGAAUGGGACCCA | 0.366
GGCCGGCAUGGUCCCAGCCUCCUCGCUGGCGCCGGCUGGGCAACAUUCCGAGGGGAUCGUCCCCUCAGUAAUGGCGAAUGGGACCCA | 0.906
GGCCGGCAUGGUCCCAGCCUCCUCGCUGGCGCCUGCUGGGCAACAUUCCAAGGGGACCGUCCCCUCGGUAAUGGCGAAUGGGACCCA | 0.312
UGCCGGCAUGAUCCCAGCCUCCUCGCUGGCGCCGGCUGGGCAACAUUCCGAGGGGACCGUCCCCUCGGUAAUGGCGAAUGGGACCCA | 0.364
GGCCGGCAUGGUCCCCGCCUCCUCGCUCGCGCCGGCUGGGCAACAUUCCGAGGGGACCGUCCCCUCGGUAAUGGCGAAUGGGACCCA | 0.119
GGCCGGCAUGGUCCCGGCCUCUUCGCUGGCGCCGGCUGGGCAACAUUCCGAGGGGACCGUCCCCUCGGUAAUGGCGAAUGGGACCCA | 0.853
GGCCGGCAUGGUCCCAGCCUCCUCGCUGGCGCCGGCUGGGCAACAUUCCGAGGGGACCGUCCCCUCGGUAAUGGCGAAGGGGACCCA | 0.742
AGCCGGCAUGGUCCCAGCCUCCUCGCUGGCGCCGGCUGGGCAACGUUCCGAGGGGACCGUCCCCUCGGUAAUGGCGAAUGGGACCCA | 0.185
GGCCGGCAUGGUCCCAGCCUCCUCGCUGGCGCCGGCUGGGCAACAUUCCGAGGCGACCGUCCCCUCGGCAAUGGCGAAUGGGACCCA | 0.99
GGCCGGCAUGGUCCCAGCCUCCUCGCUGGCGCCGCCUGGGCAACAUUCCGAGGGGAUCGUCCCCUCGGUAAUGGCGAAUGGGACCCA | 0.185
CGCCGGCAUGGUCCCAGCGUCCUCGCUGGCGCCGGCUGGGCAACAUUCCGAGGGGACCGUCCCCUCGGUAAUGGCGAAUGGGACCCA | 0
GGCCGGCAUGGUCACAGCCUCCUCGCUGGCGCCGGCUGGGCAACAUUCCGAGGGGACCGACCCCUCGGUAAUGGCGAAUGGGACCCA | 0.499
GGCCGGCAUGGUCCCAGCCUCCUCGCUGGCGCCGGCUGGGCAAGAUUCCGAGGGGACCGUCCCCUCGGUAAUGGCGGAUGGGACCCA | 0.665
GGCCGGCAUGGUCCCAGCCUCCUCGCUGGCGCCGUCUGGGCAACAUUGCGAGGGGACCGUCCCCUCGGUAAUGGCGAAUGGGACCCA | 0.312
GGCCGGCAUGGACCCAGCCGCCUCGCUGGCGCCGGCUGGGCAACAUUCCGAGGGGACCGUCCCCUCGGUAAUGGCGAAUGGGACCCA | 0
GGCCGGCAUGGUCCCAGGCUCCUCGCUGGCGCCGGCUGGGCAACAUUCCGAGGGGACCGUCCCCUCGGUAAUGGCAAAUGGGACCCA | 0.111

Where do the numbers come from? From the RNAGym collection of RNA variant scans (doi:10.7554/elife.80360).
